- Study System: UniProt:P48039
- Sequence (P48039 whole entry): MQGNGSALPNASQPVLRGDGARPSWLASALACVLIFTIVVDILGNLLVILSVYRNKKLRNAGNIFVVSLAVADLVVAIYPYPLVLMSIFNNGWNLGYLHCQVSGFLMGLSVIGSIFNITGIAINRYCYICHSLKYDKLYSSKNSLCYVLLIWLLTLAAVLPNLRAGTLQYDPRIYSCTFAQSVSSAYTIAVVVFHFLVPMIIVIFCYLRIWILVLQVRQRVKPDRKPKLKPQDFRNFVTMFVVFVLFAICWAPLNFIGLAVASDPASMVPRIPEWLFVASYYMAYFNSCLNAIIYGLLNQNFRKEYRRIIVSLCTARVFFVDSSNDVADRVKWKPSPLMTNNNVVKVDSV
- Experiment: Displacement of 2-[125I]iodomelatonin from human MT1 receptor expressed in CHO cells by gamma counting
- Assay type: cell-based
- Assay Conditions: read-out: Ki
Quantity Measured: Ki (nM)
State just the number; it will be interpreted in nM.

> print(dat)
                              record.smiles  result.number
1  COc1ccc2[nH]c(CN(C)c3ccc(C(F)(F)F)cc3)c(CCNC(C)=O)c2c1            111

Shifting focus to the compound that follows.
Measured Ki (UniProt:P48039), entry `COc1ccc(N(C)Cc2[nH]c3ccc(OC)cc3c2CCNC(C)=O)cc1` : 8
